biological target: HIV Env of isolate T250-4 a.k.a. CRF250 (clade AG) (HIV); assay: cell-based or functional assay
property_name: IC50 (µg/ml) with constrains (µg/mL)
Answers are plain numbers, in µg/mL.

binder: ePGDM9 (antibody, V domains shown) VH: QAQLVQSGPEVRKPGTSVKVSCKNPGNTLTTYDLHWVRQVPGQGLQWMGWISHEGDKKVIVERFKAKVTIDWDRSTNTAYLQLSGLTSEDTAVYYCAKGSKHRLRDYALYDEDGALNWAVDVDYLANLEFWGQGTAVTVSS VL: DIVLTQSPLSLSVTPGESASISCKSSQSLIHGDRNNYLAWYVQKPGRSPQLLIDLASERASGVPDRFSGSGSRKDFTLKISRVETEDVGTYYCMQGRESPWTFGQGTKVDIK
property_name: IC50 (µg/ml) with constrains
reported_value: 0.041

binder: PGDM1400 (antibody, V domains shown) VH: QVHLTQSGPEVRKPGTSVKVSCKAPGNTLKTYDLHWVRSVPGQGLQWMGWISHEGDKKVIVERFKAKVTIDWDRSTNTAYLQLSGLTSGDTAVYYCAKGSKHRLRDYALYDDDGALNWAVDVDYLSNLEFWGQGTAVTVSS VL: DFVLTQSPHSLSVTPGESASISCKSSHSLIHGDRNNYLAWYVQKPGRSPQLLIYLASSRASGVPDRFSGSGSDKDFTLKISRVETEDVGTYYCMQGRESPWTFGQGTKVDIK
property_name: IC50 (µg/ml) with constrains
reported_value: 0.28

binder: ePGDM5 (antibody, V domains shown) VH: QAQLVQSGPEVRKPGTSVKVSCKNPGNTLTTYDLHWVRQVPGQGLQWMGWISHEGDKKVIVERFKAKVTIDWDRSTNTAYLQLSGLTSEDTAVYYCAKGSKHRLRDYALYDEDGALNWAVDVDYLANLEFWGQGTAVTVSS VL: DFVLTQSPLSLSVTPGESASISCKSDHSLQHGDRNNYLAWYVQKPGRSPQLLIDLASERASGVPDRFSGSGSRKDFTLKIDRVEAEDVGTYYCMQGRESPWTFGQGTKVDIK
property_name: IC50 (µg/ml) with constrains
reported_value: 0.065

binder ePGDM13 (antibody, V domains shown) VH: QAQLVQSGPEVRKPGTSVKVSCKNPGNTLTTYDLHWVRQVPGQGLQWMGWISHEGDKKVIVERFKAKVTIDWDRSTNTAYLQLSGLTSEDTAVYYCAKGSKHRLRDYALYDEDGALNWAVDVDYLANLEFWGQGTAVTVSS VL: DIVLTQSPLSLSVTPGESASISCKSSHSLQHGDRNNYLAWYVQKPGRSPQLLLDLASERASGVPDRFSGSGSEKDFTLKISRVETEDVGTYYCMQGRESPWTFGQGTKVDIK , IC50 (µg/ml) with constrains observed: 0.035
